The measured values listed here are drawn from the supplement of paper PMC9233669.

system: biotinyl-Trp-oxazolone; test: self-aminoacylation, catalytic enhancement (BWO) (fold over background); higher = more active; k-Seq, kA / k0A0; sequences stand for … in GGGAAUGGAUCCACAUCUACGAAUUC…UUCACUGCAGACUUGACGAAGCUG
Variants at the floor of the assay were thinned out.
Catalogue of self-aminoacylation values
Lab note: record the figure alone, no unit after it.

Solved entries:
[[record]]
item_sequence = "AUUACUCUGGUCACCGAGUGA [Fam2.1 aminoacylation ribozyme variant]"
measured_number = 9.08

[[record]]
item_sequence = "ACACACUGCAAGCAAUCGGUC [Fam1B.1 aminoacylation ribozyme variant]"
measured_number = 1.73

[[record]]
item_sequence = "CUACUUCAAACAUUCGUUCUG [Fam1A.1 aminoacylation ribozyme variant]"
measured_number = 0.504


Would you kindly look at the next entry?
Query: Record request: self-aminoacylation value, item AUUACCCUGGUGAUCCAGUGA [Fam2.1 aminoacylation ribozyme variant]
Reply: 12.4
